We begin with a simple list: items and their reported GI50.
tested on: HT-29; test: NCI tumour cell line growth inhibition, 48 h
Activity calls are given as the source filed them. Rule as the data show it: active = GI50 up to about 1.1 µM and inactive = higher.
value_kind: GI50

INSERT INTO assay_data (compound, value_kind, observed_measurement) VALUES
  ('Cn1c(=O)nc2n(-c3cc(Cl)ccc3Cl)c3ccccc3nc-2c1=O', 'GI50', '1.54 µM (inactive)'),
  ('O=S1(=O)OCCOS(=O)(=O)C1S(=O)(=O)c1ccc2ccccc2c1', 'GI50', '> 100 µM (inactive)'),
  ('CC(=O)OCC1OC(SC2OC(COC(C)=O)C(OC(C)=O)C(OC(C)=O)C2OC(C)=O)C(OC(C)=O)C(OC(C)=O)C1OC(C)=O (centres undefined)', 'GI50', '> 100 µM (inactive)'),
  ('CN1C(=O)C2(C)SC1(c1ccccc1)C1C(=O)N(c3ccccc3)C(=O)C12 (centres undefined)', 'GI50', '76.2 µM (inactive)'),
  ('COc1cc(OCc2ccccc2)c2c(CCC(=O)O)cc(=O)oc2c1.COc1cc(OCc2ccccc2)cc2oc(=O)cc(CCC(=O)O)c12', 'GI50', '36.7 µM (inactive)'),
  ('CC(/C=C/c1ccccc1)=N\N=C(C)\C=C\c1ccccc1', 'GI50', '> 100 µM (inactive)'),
  ('CC(C)(C)c1ccc(O)c(CN(Cc2c(O)ccc3ccccc23)C2CCCCC2)c1', 'GI50', '16 µM (inactive)'),
  ('CC(=O)OC1COC(N2C(=O)/C(=N\Nc3ccc([N+](=O)[O-])cc3)c3cc(Br)c([N+](=O)[O-])cc32)C(OC(C)=O)C1OC(C)=O (centres undefined)', 'GI50', '74.5 µM (inactive)'),
  ('CC1(C)CCSC(/C=C/c2ccccc2)=N1', 'GI50', '18.4 µM (inactive)');

* * *

tested on: RXF 393; assay: NCI tumour cell line growth inhibition, 48 h
The source made the active and inactive calls. Rule as the data show it: active = GI50 up to about 1.1 µM and inactive = higher.
Classes used: 1 for active, -1 for inactive

INSERT INTO results (compound, assigned_category) VALUES
  ('CC(C)COC(=O)N1N=NC2C3CC(=O)C(O3)C21 (stereo not given)', -1),
  ('O=C1CCCC1NC(=O)C(F)(F)F (stereo not given)', -1),
  ('Cc1ccc(-c2nc(N/N=C/c3ccc(O)cc3)c3ccccc3n2)cc1', -1),
  ('COc1cc2c(c(OC)c1OC)-c1ccc(SC)c(=O)cc1C(CC(=O)Oc1cccc([N+](=O)[O-])c1)C2 (stereo not given)', 1),
  ('N#Cc1c(C#N)c(-c2ccco2)n(/N=C/c2ccco2)c1N', -1),
  ('COC(=O)C(/C(=N\O)C(=O)Nc1ccc(Br)cc1)c1nc2ccccc2nc1O (stereo not given)', -1),
  ('COC(=O)C1=C(C)NC(=S)NC1c1ccc(N(CCCl)CCCl)cc1Cl (stereo not given)', -1),
  ('N#CC(c1ccc(O)cc1)N1CCN(C(C#N)c2ccc(O)cc2)CC1 (stereo not given)', -1),
  ('CC12C(=O)OC(=O)C1(C)C1C=CC2O1 (stereo not given)', -1),
  ('Cc1cs/c(=N/c2ccccc2)n1CCC(O)(P(=O)(O)O)P(=O)(O)O', -1);

* * *

tested on: NCI-H23; test: NCI tumour cell line growth inhibition, 48 h
Activity calls are given as the source filed them. Cut-off read from the data, not from the text of the source: active = GI50 up to about 1.1 µM and inactive = higher.
We begin with a simple list: items and their reported GI50.
value_kind: GI50

INSERT INTO measurements (compound, observed_measurement) VALUES
  ('COc1cc(OC)c2c(=O)c3c([N+](=O)[O-])cccc3n(C)c2c1', '> 100 µM (inactive)'),
  ('COc1ccc(/C=C2\CCC(C)(CN(C)C)C2=O)cc1OC (stereo not given)', '> 100 µM (inactive)'),
  ('CCOC(=O)c1cc(-c2ccc(OC)c(OC)c2)cn1C', '> 10 µM (inactive)'),
  ('Cc1ccc(C)c(NC2=NC(=O)C(CC(=O)Nc3ccc(Cl)cc3Cl)S2)c1 (stereo not given)', '43.8 µM (inactive)'),
  ('CC(C)[C@H]1NC(=O)[C@H]2N=C(S[C@H]2C)[C@@H]2CCCN2C(=O)[C@H](Cc2ccccc2)NC(=O)[C@@H]2CSC(=N2)[C@@H](Cc2ccccc2)NC(=O)[C@@H]2CSC1=N2', '40.3 µM (inactive)');

* * *

test system: SK-MEL-5; assay: NCI tumour cell line growth inhibition, 48 h
The source made the active and inactive calls. Rule as the data show it: active = GI50 up to about 1.1 µM and inactive = higher.
We begin with a simple list: items and their reported GI50.
value_kind: GI50

INSERT INTO results (compound, observed_measurement) VALUES
  ('CC12CN(CC[N+](C)(C)C)CC1(C)C1CCC2O1 (configuration not stated)', '> 100 µM (inactive)'),
  ('O=C(CC1(O)C(=O)Nc2c(Cl)cc(Cl)cc21)c1ccc(Br)cc1Br (configuration not stated)', '7.4 µM (inactive)'),
  ('CCC1N2CCCCC2[C@@H]2c3[nH]c4ccccc4c3CCN12 (some centres not stated)', '> 100 µM (inactive)'),
  ('CCC1C2C=CC(CC2)N1S(=O)(=O)c1ccc(C)cc1 (configuration not stated)', '18.4 µM (inactive)'),
  ('CCOC(=O)Nn1c(CC#N)nnc1Cc1ccccc1', '> 100 µM (inactive)'),
  ('O/N=C/c1ncccc1C1OCCO1', '> 100 µM (inactive)'),
  ('CC(C)(C)[Si](C)(C)O[C@@H](C(=O)OC1C=CCCC1)[C@@H](NC(=O)c1ccccc1)c1ccccc1 (some centres not stated)', '16.8 µM (inactive)');

* * *

Data export: GI50 values recorded with HCT-15.
value_kind: GI50 (µM)

INSERT INTO assay_data (molecule, measured_on, value_kind, relation_sign, observed_measurement) VALUES
  ('CO/C(=N\N=C\c1ccc(Cl)cc1)c1ccncc1', 'HCT-15', 'GI50', '>', 100),
  ('CC(O)CN1c2ccccc2Sc2ccc(Cl)cc21 (stereo not given)', 'HCT-15', 'GI50', '>', 10),
  ('COc1cc2c(c(OC)c1OC)-c1ccc(SC)c(=O)cc1C(CC(=O)Oc1cccc([N+](=O)[O-])c1)C2 (stereo not given)', 'HCT-15', 'GI50', '=', 0.4),
  ('C=CC/N=C1/N=C(CC(=O)OCC)CS1', 'HCT-15', 'GI50', '>', 100),
  ('O=C(O)CN(c1ccccc1)S(=O)(=O)c1ccccc1[N+](=O)[O-]', 'HCT-15', 'GI50', '>', 100),
  ('CC12C(=O)OC(=O)C1(C)C1C=CC2O1 (stereo not given)', 'HCT-15', 'GI50', '>', 100),
  ('CCOC(=O)CN1C(=O)C(=O)N(c2ccc(OC)c3ccccc23)C1=O', 'HCT-15', 'GI50', '>', 100),
  ('COc1ccc(C(=O)/C(=N/Nc2ccccc2)c2ccc(OC)cc2)cc1', 'HCT-15', 'GI50', '=', 8.55),
  ('COc1ccc(CNC2=C(NC(C)=O)C(=O)c3ccccc3C2=O)cc1', 'HCT-15', 'GI50', '=', 13.1),
  ('O=C(COc1ccc(OCC(=O)NNC2=NC(c3cc(F)c(Cl)cc3Cl)CS2)c(Cl)c1)NNC1=NC(c2cc(F)c(Cl)cc2Cl)CS1 (stereo not given)', 'HCT-15', 'GI50', '=', 16.7);

* * *

tested on: A498; test: NCI tumour cell line growth inhibition, 48 h
Activity calls are given as the source filed them. No stated cut-off is given here; in the data, active = GI50 up to about 1.1 µM and inactive = higher.
value_kind: GI50

INSERT INTO assay_data (compound, measured_on, observed_measurement) VALUES
  ('COC(=O)C(CCCCNC(=O)CNC(=O)OCc1ccccc1)NC(=O)C(CCCCNC(=O)CNC(=O)OCc1ccccc1)NC(=O)OCc1ccccc1 (stereo not drawn)', 'A498', '> 100 µM (inactive)'),
  ('O=C1CC2(CCNCC2)C(=O)N1N1CCOCC1', 'A498', '> 100 µM (inactive)'),
  ('CCOC(=O)NN(C(=O)OCC)c1c(C)cc(C)cc1C', 'A498', '> 100 µM (inactive)');

* * *

system: MDA-N; assay: NCI tumour cell line growth inhibition, 48 h
The source made the active and inactive calls. No stated cut-off is given here; in the data, active = GI50 up to about 1.1 µM and inactive = higher.
value_kind: GI50

INSERT INTO results (molecule, observed_measurement) VALUES
  ('[N-]=[N+]=Nc1nc2ccccc2c(N=[N+]=[N-])c1Cl', '> 100 µM (inactive)'),
  ('O=C1CC[C@@]2(O)[C@H]3Cc4ccc(-c5cccc(O)c5)c5c4[C@@]2(CCN3CC2CC2)[C@H]1O5', '14.6 µM (inactive)'),
  ('CC(C)/C(Cl)=N\OC(=O)Nc1ccc(C#N)cc1', '6.01 µM (inactive)'),
  ('CC12C(=O)OC(=O)C1(C)C1C=CC2O1 (stereo unspecified)', '> 100 µM (inactive)'),
  ('COC1(OC)C2(Cl)C(Cl)=C(Cl)C1(Cl)C1COCC12 (stereo unspecified)', '> 20.4 µM (inactive)'),
  ('CCCCCCCCCCCCC(=O)NCC(=O)NC(Cc1ccccc1)C(=O)Oc1ccc([N+](=O)[O-])cc1 (stereo unspecified)', '> 100 µM (inactive)'),
  ('CC(C)(C)OC(=O)N1CCC(NC(=O)NC2CCN(C(=O)OC(C)(C)C)CC2)CC1', '> 100 µM (inactive)'),
  ('O=NNc1cnc(O)nc1O', '> 100 µM (inactive)'),
  ('COC(=O)C(CCCCNC(=O)CNC(=O)OCc1ccccc1)NC(=O)C(CCCCNC(=O)CNC(=O)OCc1ccccc1)NC(=O)OCc1ccccc1 (stereo unspecified)', '51.6 µM (inactive)'),
  ('O=C(CC(O)c1cccnc1)CC(O)c1cccnc1 (stereo unspecified)', '7.26 µM (inactive)'),
  ('COc1ccc(C2c3cc4c(cc3OC(N3CCOCC3)C2C)OCO4)c(OC)c1OC (stereo unspecified)', '2.45 µM (inactive)');
